- SUBJECT_OF_TEST: UniProt P16234
- Sequence (P16234 whole entry): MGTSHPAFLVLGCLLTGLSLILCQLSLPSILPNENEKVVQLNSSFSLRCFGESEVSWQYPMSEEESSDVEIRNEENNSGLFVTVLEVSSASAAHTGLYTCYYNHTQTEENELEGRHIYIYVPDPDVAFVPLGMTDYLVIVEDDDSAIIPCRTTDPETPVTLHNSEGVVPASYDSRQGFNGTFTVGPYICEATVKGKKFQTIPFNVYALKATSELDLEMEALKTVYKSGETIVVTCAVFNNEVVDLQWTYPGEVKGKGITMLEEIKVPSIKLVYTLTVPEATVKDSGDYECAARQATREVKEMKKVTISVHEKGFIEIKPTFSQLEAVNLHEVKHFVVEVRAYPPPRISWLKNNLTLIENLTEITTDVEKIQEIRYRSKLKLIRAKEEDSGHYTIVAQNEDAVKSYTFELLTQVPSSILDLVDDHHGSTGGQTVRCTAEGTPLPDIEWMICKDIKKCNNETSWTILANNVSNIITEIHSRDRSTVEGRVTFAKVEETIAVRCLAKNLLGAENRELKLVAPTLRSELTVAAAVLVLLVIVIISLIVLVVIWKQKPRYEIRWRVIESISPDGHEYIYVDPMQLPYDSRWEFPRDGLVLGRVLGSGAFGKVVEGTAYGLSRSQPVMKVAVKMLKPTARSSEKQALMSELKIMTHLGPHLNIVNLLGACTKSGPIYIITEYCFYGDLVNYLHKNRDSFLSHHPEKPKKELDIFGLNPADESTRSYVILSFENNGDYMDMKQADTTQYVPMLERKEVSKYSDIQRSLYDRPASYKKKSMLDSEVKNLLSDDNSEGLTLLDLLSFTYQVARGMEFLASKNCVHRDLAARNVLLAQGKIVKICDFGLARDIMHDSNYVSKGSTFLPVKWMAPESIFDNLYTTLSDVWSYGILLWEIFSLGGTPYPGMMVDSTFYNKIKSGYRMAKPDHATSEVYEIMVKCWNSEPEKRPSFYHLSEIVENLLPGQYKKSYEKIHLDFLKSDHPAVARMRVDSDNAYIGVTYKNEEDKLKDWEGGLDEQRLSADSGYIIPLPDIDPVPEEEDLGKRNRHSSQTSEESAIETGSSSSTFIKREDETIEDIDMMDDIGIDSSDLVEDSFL
- EXPERIMENT_NOTES: Kinase Screening Assay: Compound IC50 values were determined from 10-point, 1:3 dilution curves starting at either 100 μM or 10 μM with 10 μM ATP, by Reaction Biology Corp. For the whole kinome screen compounds were screened against 340 wild type kinases at a single dose of 1 μM, in duplicate, with 10 μM of ATP by Reaction Biology Corp. The data was averaged and plotted as percentage enzyme …
QUANTITY_KIND: IC50

Data point: `Cc1ccc(-c2nn(CCN3CCC(N(C)C)CC3)c3ncnc(N)c23)cc1` ; IC50 = > 1000 nM

* * *

- SUBJECT_OF_TEST: Tyrosine-protein kinase HCK (Homo sapiens, UniProt P08631)
- Sequence (P08631 whole entry): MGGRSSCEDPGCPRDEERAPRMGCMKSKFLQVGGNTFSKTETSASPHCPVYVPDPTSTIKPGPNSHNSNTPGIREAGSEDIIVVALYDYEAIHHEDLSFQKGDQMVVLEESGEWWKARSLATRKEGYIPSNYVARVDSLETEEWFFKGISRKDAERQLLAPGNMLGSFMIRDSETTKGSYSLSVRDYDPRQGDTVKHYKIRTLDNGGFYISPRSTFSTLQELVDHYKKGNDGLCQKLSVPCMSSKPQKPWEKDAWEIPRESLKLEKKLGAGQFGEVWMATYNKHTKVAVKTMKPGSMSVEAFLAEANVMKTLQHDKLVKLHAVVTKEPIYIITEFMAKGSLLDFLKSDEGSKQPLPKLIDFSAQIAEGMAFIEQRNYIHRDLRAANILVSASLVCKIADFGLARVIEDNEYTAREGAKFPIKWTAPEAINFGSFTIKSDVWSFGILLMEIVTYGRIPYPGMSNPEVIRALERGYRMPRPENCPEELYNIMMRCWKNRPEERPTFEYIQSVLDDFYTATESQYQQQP
- EXPERIMENT_NOTES: Kinase Screening Assay: Compound IC50 values were determined from 10-point, 1:3 dilution curves starting at either 100 μM or 10 μM with 10 μM ATP, by Reaction Biology Corp. For the whole kinome screen compounds were screened against 340 wild type kinases at a single dose of 1 μM, in duplicate, with 10 μM of ATP by Reaction Biology Corp. The data was averaged and plotted as percentage enzyme …
pIC50: −log10 of the molar value.
QUANTITY_KIND: pIC50

So the reported pIC50 for `Cc1ccc(-c2nn(CCN3CCC(N(C)C)CC3)c3ncnc(N)c23)cc1` , on Tyrosine-protein kinase HCK (Homo sapiens, UniProt P08631), turned out to be < 6.00

* * *

- SUBJECT_OF_TEST: Mast/stem cell growth factor receptor Kit (Homo sapiens)
- Sequence (P10721 whole entry): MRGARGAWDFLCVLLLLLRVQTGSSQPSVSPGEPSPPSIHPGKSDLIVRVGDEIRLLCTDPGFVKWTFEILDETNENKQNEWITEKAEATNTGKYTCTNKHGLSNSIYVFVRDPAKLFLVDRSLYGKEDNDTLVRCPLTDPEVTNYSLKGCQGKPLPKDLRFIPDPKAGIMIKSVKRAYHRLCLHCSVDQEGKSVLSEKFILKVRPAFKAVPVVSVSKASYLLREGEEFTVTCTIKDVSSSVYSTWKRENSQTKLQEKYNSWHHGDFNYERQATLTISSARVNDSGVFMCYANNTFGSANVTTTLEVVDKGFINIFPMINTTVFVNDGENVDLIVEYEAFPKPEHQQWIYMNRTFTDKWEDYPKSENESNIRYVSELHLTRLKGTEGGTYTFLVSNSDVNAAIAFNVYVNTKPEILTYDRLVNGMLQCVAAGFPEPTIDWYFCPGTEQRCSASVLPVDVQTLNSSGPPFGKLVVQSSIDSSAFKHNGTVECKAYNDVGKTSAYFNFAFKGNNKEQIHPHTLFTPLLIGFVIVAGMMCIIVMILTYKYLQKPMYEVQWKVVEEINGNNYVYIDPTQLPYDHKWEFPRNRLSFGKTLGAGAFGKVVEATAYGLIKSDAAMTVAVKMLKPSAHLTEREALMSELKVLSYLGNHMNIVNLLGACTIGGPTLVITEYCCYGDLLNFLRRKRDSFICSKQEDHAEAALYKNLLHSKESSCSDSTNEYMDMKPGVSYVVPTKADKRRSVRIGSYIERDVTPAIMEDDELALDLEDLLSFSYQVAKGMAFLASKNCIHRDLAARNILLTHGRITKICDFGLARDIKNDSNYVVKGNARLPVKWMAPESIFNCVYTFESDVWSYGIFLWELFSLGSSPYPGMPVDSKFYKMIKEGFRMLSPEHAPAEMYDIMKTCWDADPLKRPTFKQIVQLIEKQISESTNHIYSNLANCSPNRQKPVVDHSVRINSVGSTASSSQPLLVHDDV
- EXPERIMENT_NOTES: Kinase Screening Assay: Compound IC50 values were determined from 10-point, 1:3 dilution curves starting at either 100 μM or 10 μM with 10 μM ATP, by Reaction Biology Corp. For the whole kinome screen compounds were screened against 340 wild type kinases at a single dose of 1 μM, in duplicate, with 10 μM of ATP by Reaction Biology Corp. The data was averaged and plotted as percentage enzyme …
pIC50: −log10 of the molar value.
QUANTITY_KIND: pIC50

Data point: `Cc1ccc(-c2nn(CCN3CCC(N(C)C)CC3)c3ncnc(N)c23)cc1` ; pIC50 = < 6.00

* * *

- SUBJECT_OF_TEST: Tyrosine-protein kinase Blk (Homo sapiens)
- Sequence (P51451 whole entry): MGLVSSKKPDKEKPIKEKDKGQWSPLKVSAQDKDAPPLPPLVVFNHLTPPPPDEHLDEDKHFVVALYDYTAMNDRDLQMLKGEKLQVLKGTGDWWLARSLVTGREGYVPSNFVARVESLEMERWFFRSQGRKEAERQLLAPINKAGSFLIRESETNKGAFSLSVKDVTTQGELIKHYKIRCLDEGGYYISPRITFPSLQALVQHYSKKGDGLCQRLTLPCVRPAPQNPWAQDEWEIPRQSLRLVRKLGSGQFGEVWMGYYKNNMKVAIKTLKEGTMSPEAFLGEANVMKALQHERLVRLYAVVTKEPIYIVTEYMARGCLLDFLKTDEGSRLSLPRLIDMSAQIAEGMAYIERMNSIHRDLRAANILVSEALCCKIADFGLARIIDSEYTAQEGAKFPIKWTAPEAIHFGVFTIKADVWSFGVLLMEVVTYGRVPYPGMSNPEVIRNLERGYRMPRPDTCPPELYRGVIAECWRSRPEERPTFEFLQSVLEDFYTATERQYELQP
- EXPERIMENT_NOTES: Kinase Screening Assay: Compound IC50 values were determined from 10-point, 1:3 dilution curves starting at either 100 μM or 10 μM with 10 μM ATP, by Reaction Biology Corp. For the whole kinome screen compounds were screened against 340 wild type kinases at a single dose of 1 μM, in duplicate, with 10 μM of ATP by Reaction Biology Corp. The data was averaged and plotted as percentage enzyme …
pIC50: −log10 of the molar value.
QUANTITY_KIND: pIC50

Data point: `Cc1ccc(-c2nn(CCN3CCC(N(C)C)CC3)c3ncnc(N)c23)cc1` ; pIC50 = < 6.00

Data origin: ChEMBL document CHEMBL5726952
